- TESTED_SYSTEM: Muscarinic acetylcholine receptor M5 (Homo sapiens); note: in other assays of this panel Not Active means under 50% inhibition at 10 µM
- Sequence (P08912 whole entry): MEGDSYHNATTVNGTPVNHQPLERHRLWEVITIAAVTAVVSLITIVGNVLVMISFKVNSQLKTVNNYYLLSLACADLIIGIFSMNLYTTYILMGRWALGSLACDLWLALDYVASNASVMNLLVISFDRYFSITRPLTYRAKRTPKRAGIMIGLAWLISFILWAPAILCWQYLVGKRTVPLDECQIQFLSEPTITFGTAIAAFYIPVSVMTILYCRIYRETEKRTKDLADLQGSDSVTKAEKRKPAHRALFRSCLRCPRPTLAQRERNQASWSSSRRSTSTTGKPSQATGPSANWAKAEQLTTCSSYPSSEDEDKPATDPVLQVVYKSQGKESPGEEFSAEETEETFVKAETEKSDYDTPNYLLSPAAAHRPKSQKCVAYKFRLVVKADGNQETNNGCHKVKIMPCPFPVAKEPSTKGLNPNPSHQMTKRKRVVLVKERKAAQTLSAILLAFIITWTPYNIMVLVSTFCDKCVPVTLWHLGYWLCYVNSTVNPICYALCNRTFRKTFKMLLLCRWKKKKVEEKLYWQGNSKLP
- Format: cell membranes, CHO-K1, Membrane
- EXPERIMENTAL_SETUP: cho-k1
MEASURED_PARAMETER: Ki

1. LEAD (II) ACETATE    Not Active
2. CADMIUM ACETATE    Not Active
3. LIPOPOLYSACCHARIDE E. COLI O55:B5    Not Active
4. SODIUM NITROPRUSSIDE    Not Active

###

- TESTED_SYSTEM: C-C chemokine receptor type 4 (Homo sapiens, UniProt P51679); note: in other assays of this panel Not Active means under 50% inhibition at 10 µM
- Sequence (P51679 whole entry): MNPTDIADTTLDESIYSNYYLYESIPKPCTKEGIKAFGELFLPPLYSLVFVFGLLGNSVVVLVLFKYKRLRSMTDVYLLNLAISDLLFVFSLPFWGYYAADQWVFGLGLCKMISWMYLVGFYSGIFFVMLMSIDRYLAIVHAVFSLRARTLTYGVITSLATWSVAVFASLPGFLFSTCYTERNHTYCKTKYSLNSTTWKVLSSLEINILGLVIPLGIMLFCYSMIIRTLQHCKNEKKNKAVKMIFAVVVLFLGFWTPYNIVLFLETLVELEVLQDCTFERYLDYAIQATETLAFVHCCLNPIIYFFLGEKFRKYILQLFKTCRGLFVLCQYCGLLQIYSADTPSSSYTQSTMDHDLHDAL
- Assay type: cell membranes, Chem-1, Membrane
- EXPERIMENTAL_SETUP: read-out: Ki
MEASURED_PARAMETER: Ki (µM)
Give just the number in µM; leave the unit off.

Short answer for CCCCc1oc2ccccc2c1C(=O)c1cc(I)c(OCCN(CC)CC)c(I)c1 [AMIODARONE] : Ki was 11.4

Hello, the source for this data is ChEMBL document CHEMBL1909046, in case you need it.
